- Tested on: MC-IXC;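 also: growth inhibition of MC-IXC cells, read out with a cell viability assay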
- experimental protocol: cells
- Format: functional, cell-based
- experimental context: Homo sapiens
- Description: SANGER: Inhibition of human MC-IXC cell growth in a cell viability assay.
# IC50 values compiled below

Below, 6 molecules whose answers are already recorded.
Exercise: I would be grateful if you could share the reported IC50 for Cc1ccc(C(=O)Nc2ccc(CN3CCN(C)CC3)c(C(F)(F)F)c2)cc1C#Cc1cnc2cccnn12 [PONATINIB] .
Key: > 512 nM

Exercise: I would be grateful if you could share the reported IC50 for C/C(=C\c1csc(C)n1)[C@@H]1C[C@@H]2O[C@]2(C)CCC[C@H](C)[C@H](O)[C@@H](C)C(=O)C(C)(C)[C@@H](O)CC(=O)O1 [PATUPILONE] .
Key: 3.06 nM

Exercise: I would be grateful if you could share the reported IC50 for NC(=O)Nc1cc(-c2cccc(F)c2)sc1C(=O)N[C@H]1CCCNC1 [AZD-7762] .
Key: 128 nM

Exercise: I would be grateful if you could share the reported IC50 for CS(=O)(=O)N1CCN(Cc2cc3nc(-c4cccc5[nH]ncc45)nc(N4CCOCC4)c3s2)CC1 [PICTILISIB] .
Key: > 4000 nM

Exercise: I would be grateful if you could share the reported IC50 for CN(C)CCOc1ccc(-c2nc(-c3ccncc3)c(-c3ccc4c(c3)CC/C4=N\O)[nH]2)cc1 [SB590885] .
Key: > 5000 nM

Exercise: I would be grateful if you could share the reported IC50 for O=S(=O)(O)c1ccc2cc(/N=N/c3cc(S(=O)(=O)O)c4cccnc4c3O)ccc2c1 .
Key: > 16000 nM

Continuing:
Exercise: I would be grateful if you could share the reported IC50 for CO[C@@H]1[C@H](N(C)C(=O)c2ccccc2)C[C@H]2O[C@]1(C)n1c3ccccc3c3c4c(c5c6ccccc6n2c5c31)C(=O)NC4 [MIDOSTAURIN] .
Key: 266 nM
